Please respond with reported pKd for every item in the list.
Biological target: IL36R
Experiment: Kd (SPR)
pKd is a log-scale quantity: -log10 of the concentration expressed in molar.

Query: // lookup pKd for unnamed (protein) chain 1: QVQLVQSGAEVKKPGASVKVSCKASGYSFTSSWIHWVKQAPGQGLEWMGEINPGNVRTNYNENFRNKVTMTVDTSISTAYMELSRLRSDDTAVYYCTRVSYGEPYFDYWGQGTLVTVSS chain 2: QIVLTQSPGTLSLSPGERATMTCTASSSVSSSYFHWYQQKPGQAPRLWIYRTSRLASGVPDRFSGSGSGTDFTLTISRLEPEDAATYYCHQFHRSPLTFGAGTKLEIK
Reply: 9.12

Query: // lookup pKd for unnamed (protein) chain 1: QVQLVQSGAEVKKPGASVKVSCKASGYSFTSSWIHWVKQAPGQGLEWMGEINPGNVRTNYNENFRNKVTMTVDTSISTAYMELSRLRSDDTAVYYCTVVFYGEPYFPYWGQGTLVTVSS chain 2: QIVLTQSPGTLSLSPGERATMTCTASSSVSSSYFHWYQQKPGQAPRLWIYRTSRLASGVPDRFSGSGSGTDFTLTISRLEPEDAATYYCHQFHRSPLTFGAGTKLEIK
Reply: 9.02

Cited source for all entries: the FLAb antibody collection (doi:10.1101/2023.12.08.570889)
